Test system: Control peptide
experimental.details: Antibody specificity by ELISA
particulars: ELISA binding, irrelevant peptide
pEC50: −log10 of the molar value.
property.measured: pEC50

molecule: H1H1911N: human IgG1 Fc anti-EGFRvIII antibody with variable domains 1911; HCVR/LCVR SEQ ID NOs 50/58 (antibody, V domains shown, human IgG1 Fc) VH: QVQLVESGGGVVQPGRSLRLSCAASGFTFSRYGIHWVRQAPGKGLEWVAVIWHDGSNKYYADSVKGRFTISRDNSKNTLYLQMTSLRAEDTAVYYCARDGLEIRDHYYYGMDVWGQGTTVTVSS VL: DIQMTQSPSTLSASVGDRVTITCRASQSTSSWLAWYQQKPGKAPTLLIYKASSLESGVPSKFSGSGSGTEFTLTISSLQPDDFATYYCQQYNRYSRTFGQGTKVEIK
readout.value: < 8.00
